# test_target: UniProt P19327
# Sequence (P19327 whole entry): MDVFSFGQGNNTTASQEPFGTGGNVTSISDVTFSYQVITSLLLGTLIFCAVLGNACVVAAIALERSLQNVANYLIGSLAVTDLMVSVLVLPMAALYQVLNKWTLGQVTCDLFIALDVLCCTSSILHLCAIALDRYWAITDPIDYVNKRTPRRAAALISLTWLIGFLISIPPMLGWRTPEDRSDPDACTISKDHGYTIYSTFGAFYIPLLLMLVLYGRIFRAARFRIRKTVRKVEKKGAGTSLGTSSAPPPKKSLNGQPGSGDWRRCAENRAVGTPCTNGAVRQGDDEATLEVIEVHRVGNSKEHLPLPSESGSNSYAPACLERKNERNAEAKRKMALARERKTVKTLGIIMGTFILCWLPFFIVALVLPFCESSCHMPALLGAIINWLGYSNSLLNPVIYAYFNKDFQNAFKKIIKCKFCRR
recorded_endpoint: Ki (nM)
Return type: number; implicit unit nM.

CCC[C@@H](C)NC(=O)[C@@H]1C=C2c3cccc4[nH]cc(c34)C[C@H]2N(C)C1	0.6
CC[C@@H](C)NC(=O)[C@@H]1C=C2c3cccc4[nH]cc(c34)C[C@H]2N(C)C1	4.6

Task item: So what does the record say about Ki for CCCC[C@@H](C)NC(=O)[C@@H]1C=C2c3cccc4[nH]cc(c34)C[C@H]2N(C)C1 ?
Reply: 0.32

Task item: GET /values?readout=Ki&item= CCCCC(C)NC(=O)[C@@H]1C=C2c3cccc4[nH]cc(c34)C[C@H]2N(C)C1 (stereo partly drawn)
Reply: 4.9

----------
# test_target: UniProt:P14842
# protocol_notes: Binding affinity was measured against 5-hydroxytryptamine 2A receptor by displacement of [3H]- ketanserin by lysergic acid amides
recorded_endpoint: pKi
Note: pKi values are expressed as the negative base-10 logarithm of concentration in M.

Task item: May I ask what pKi has been recorded for CCCC(C)NC(=O)[C@@H]1C=C2c3cccc4[nH]cc(c34)C[C@H]2N(C)C1 (stereo partly specified) ?
Reply: 6.98

----------
# test_target: 5-hydroxytryptamine receptor 2A (Rattus norvegicus)
# Sequence (P14842 whole entry): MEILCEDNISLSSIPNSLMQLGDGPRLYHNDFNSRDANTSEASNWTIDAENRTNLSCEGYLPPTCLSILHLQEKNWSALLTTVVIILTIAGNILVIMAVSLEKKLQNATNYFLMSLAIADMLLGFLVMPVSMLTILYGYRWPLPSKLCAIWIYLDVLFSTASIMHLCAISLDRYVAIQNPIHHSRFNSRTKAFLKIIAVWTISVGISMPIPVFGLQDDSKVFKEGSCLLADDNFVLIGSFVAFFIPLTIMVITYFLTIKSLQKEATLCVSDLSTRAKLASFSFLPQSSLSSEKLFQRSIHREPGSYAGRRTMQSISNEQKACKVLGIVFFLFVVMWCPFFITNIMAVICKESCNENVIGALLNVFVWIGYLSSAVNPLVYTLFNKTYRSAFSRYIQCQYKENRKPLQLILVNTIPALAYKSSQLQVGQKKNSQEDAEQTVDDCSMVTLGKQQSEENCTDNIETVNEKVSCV
# protocol_notes: Binding affinity was measured against 5-hydroxytryptamine 2A receptor by displacement of [3H]- ketanserin by lysergic acid amides
recorded_endpoint: pKi
Scale: negative log10 of molar concentration, which is what pKi denotes.

CCC(CC)NC(=O)[C@@H]1C=C2c3cccc4[nH]cc(c34)C[C@H]2N(C)C1	8.10

Task item: Give its pKi value. Item: CCCCCC(C)NC(=O)[C@@H]1C=C2c3cccc4[nH]cc(c34)C[C@H]2N(C)C1 (stereo partly drawn)
Reply: 6.45

Task item: What measured pKi goes with CCCC[C@@H](C)NC(=O)[C@@H]1C=C2c3cccc4[nH]cc(c34)C[C@H]2N(C)C1 ?
Reply: 7.80

Task item: Data request, read-out pKi, for CCC[C@@H](C)NC(=O)[C@@H]1C=C2c3cccc4[nH]cc(c34)C[C@H]2N(C)C1
Reply: 8.35

Task item: Given the compound CCCCC(C)NC(=O)[C@@H]1C=C2c3cccc4[nH]cc(c34)C[C@H]2N(C)C1 (stereo partly drawn) , what is its reported pKi?
Reply: 7.26

Task item: State the recorded pKi for this entry: CCCCC[C@@H](C)NC(=O)[C@@H]1C=C2c3cccc4[nH]cc(c34)C[C@H]2N(C)C1
Reply: 7.10
